Test: soluble fraction after stress (log2 fold change); higher = more stays soluble; pooled small domains, quantitative proteomics
Conditions: stress: pH 4
soluble fraction (log2): recorded values
Output spec: single numeric token, no unit.

Consider the worked cases shown below.
query-sequence | soluble fraction (log2)
HMPLPFSPVMFVGTKSGAQTDLDGNYKIETYYSSDSLKVVVLGYAPLAKKVKQGTTSVVNFELSAAS | 0.104
HMDGAPVTVIKNGEVDVATTMRVGLSASELMFKLRAAGVDEVQIVHRAVLEQNGQLTIIKYGEE | -1.2

We now examine a further sequence.
Provide one value: measured soluble fraction (log2) of "HMQERNYIVRRGDTLWDLAKTYYGSGTKYTVIYDANRDNIEAEAKRRGKQSSNGGYWIYPGTELTI" -0.0819
